# Tested target: Rat liver microsomal squalene synthetase (Rattus norvegicus)
# Construct: Rat liver microsome, the source of enzyme; from tissue; host or cells: rat liver microsomes
# Sequence (Q02769 1-416): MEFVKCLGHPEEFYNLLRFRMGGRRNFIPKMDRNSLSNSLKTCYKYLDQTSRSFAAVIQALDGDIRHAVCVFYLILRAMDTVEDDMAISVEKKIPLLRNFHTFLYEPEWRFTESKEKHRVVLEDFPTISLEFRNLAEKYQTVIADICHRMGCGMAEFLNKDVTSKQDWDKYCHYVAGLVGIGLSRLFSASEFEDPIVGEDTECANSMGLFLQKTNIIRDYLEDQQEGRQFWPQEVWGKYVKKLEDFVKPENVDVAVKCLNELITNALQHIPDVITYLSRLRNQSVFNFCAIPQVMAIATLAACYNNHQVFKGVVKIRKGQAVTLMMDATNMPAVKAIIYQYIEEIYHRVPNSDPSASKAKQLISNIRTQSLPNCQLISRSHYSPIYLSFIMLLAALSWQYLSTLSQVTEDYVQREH
# Assay info: In vitro inhibition of squalene synthetase
# Assay type: biochemical
# Assay context: values marked * in Table 1: 1 µM test compound; rat liver microsomes, labelled farnesyl pyrophosphate, 10 minutes at 37 °C
Observed property: inhibition at 1 µM (%)

Compound: O=C(O)C1C(C(=O)O)C(C(=O)N(Cc2ccc(Oc3ccccc3)cc2)Cc2ccco2)C1C(=O)N(Cc1ccc(Oc2ccccc2)cc1)Cc1ccco1 (stereo not drawn)
Observed result: 56

Compound: CCCN(Cc1ccc(Oc2ccccc2)cc1)C(=O)C1C(C=CC(=O)O)C(C(=O)O)C1C(=O)N(CCC)Cc1ccc(Oc2ccccc2)cc1 (stereo not drawn) [Example 76B]
Observed result: 57

Compound: CCCN(Cc1ccc(Oc2ccccc2)cc1)C(=O)C1C(Cc2nn[nH]n2)C(C(=O)O)C1C(=O)N(CCC)Cc1ccc(Oc2ccccc2)cc1 (stereo not drawn) [Example 73B]
Observed result: 75

Values compiled from patent EP0677039B1.
